IC50 reference
TARGET_OR_SYSTEM: LPAR1 (Homo sapiens, UniProt Q92633)
Construct: host or cells: U2OS
Sequence (Q92633 whole entry): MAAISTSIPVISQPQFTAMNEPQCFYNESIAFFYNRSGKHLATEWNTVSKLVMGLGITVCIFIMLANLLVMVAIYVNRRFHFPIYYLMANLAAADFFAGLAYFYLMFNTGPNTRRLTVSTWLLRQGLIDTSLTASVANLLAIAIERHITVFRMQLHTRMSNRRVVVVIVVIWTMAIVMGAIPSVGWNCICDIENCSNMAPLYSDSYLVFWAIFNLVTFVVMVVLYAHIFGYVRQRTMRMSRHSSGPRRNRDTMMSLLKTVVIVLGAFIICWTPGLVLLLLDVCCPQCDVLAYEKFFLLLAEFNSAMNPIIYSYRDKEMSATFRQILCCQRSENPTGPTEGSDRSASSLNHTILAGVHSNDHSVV
EXPERIMENT_DESCRIPTION: LPAR1 FLIPR Assay
Type: cell-based
SETTINGS: U2OS cells stably expressing LPAR1; LPA (EC80); Calcium 6 FLIPR dye
Reply numerically in nM, unit not repeated.

Examples with their reported IC50 follow.
# COMPOUND, IC50 [nM]
rows = [
    ("COc1cc(C(=O)N(CCCCC(=O)O)CCCc2ccccc2)cc(OC)c1Br", 20),
    ("COc1cc(C(=O)N(CCCCC(=O)O)CCC(C)c2ccccc2)cc(OC)c1C (centres unmarked)", 47),
    ("CCOc1cc(OCC)cc(C(=O)N(CCCCC(=O)O)CCCc2ccc(C)o2)c1", 84),
]

Param item: `COc1cc(C(=O)N(CCCc2ccccc2)CCOCP(=O)(O)O)cc(OC)c1C` ; param system: LPAR1 (Homo sapiens, UniProt Q92633); output IC50: 3

Param item: `COc1cc(C(=O)N(CCCCCC(=O)O)CCCc2ccccc2)cc(OC)c1C` ; param system: LPAR1 (Homo sapiens, UniProt Q92633); output IC50: 27

Param item: `CCS(=O)(=O)NC(=O)CCCCN(CCCc1ccccc1)C(=O)c1cc(OC)c(C)c(OC)c1` ; param system: LPAR1 (Homo sapiens, UniProt Q92633); output IC50: 46

Param item: `CCOc1cc(OCC)cc(C(=O)N(CCCCC(=O)O)CCCc2ccccc2)c1` ; param system: LPAR1 (Homo sapiens, UniProt Q92633); output IC50: 50

Param item: `COc1cc(C(=O)N(CCCc2ccccc2)CC(=O)NC2(C(=O)O)Cc3ccccc3C2)cc(OC)c1C` ; param system: LPAR1 (Homo sapiens, UniProt Q92633); output IC50: 45

Param item: COc1cc(C(=O)N(CCCc2ccccc2)CCCC(C)(O)C(=O)O)cc(OC)c1C (centres unmarked) ; param system: LPAR1 (Homo sapiens, UniProt Q92633); output IC50: 27

Every entry's value here was drawn from patent US20190119200A1.
